readout.name: melting point

>>> meas_value("CC#CC1(O)CCC2C3CCC4=CC(=O)CCC4C3CCC21CC (stereo not given)")
"124 to 125 °C"

Pending molecule:
Q: melting point lookup needed for COC(=O)c1ccc(Cc2cccc3ccc(C(=O)NCC(C)C)cc23)c(OC)c1 , thanks.
A: 174 to 175 °C

###

readout.name: melting point

Past entries and their recorded results:
>>> meas_value("O=Cc1cc2c(cc1C=O)[C@H](CO)OC2=O")
"144 to 145 °C"
>>> meas_value("Cc1c(C(=O)OCc2ccccc2)sc2ccc3[nH]c4c(c3c12)CN(C)CC4")
"174 °C"
>>> meas_value("CC(=O)OC1CSC(Oc2ccc(I)nc2Cl)C(OC(C)=O)C1OC(C)=O (configuration not stated)")
"188 °C"

Moving on to another compound below.
Q: Which value of melting point has been reported for COc1cc(C(=O)N(C)C)ccc1OCCCN1CCC(c2noc3cc(F)ccc23)CC1 in the records?
A: 126 to 127 °C

Recorded values, source a melting point compilation (Tetko et al.; mined from patent text by program, amines drawn as free bases though some values may be those of a salt).
